target: UniProt:P16913; format: biochemical; conditions: p53 and histone H3 as substrates, ATP 5 µM
value kind: Sensitivity of vaccinia virus B1R kinase to inhibitor (in words)

# record smiles, endpoint result
rows = [
    ("COc1cc(OC)c(C=C2C(=O)Nc3ccccc32)c(OC)c1", "not"),
    ("CN[C@@H]1C[C@H]2O[C@@](C)([C@@H]1OC)n1c3ccccc3c3c4c(c5c6ccccc6n2c5c31)C(=O)NC4", "sensitive"),
    ("O=c1cc(-c2cccc3c2Sc2ccccc2S3)oc(N2CCOCC2)c1", "sensitive"),
    ("Cn1cc(C2=C(c3cn(CCCSC(=N)N)c4ccccc34)C(=O)NC2=O)c2ccccc21", "sensitive"),
]

###

biological target: human VRK1 (Homo sapiens); construct: made in house; test: In vitro kinase assay, VRK1 kinase activity (autophosphorylation and H3 phosphorylation); format: biochemical; details: inhibitor 100 µM, 5 µM ATP, autophosphorylation and H3 phosphorylation
value kind: Effect on VRK1 kinase activity at 100 µM inhibitor (in words)

# molecule, endpoint result
data = [
    ("O=c1cc(-c2cccc3c2Sc2ccccc2S3)oc(N2CCOCC2)c1", "no noticeable effect"),
    ("CC(=O)c1ccc(N2CCOCC2)cc1O", "no noticeable effect"),
    ("O=c1cc(N2CCOCC2)oc2c1ccc1ccccc12 [NU7026, 2-(Morpholin-4-yl)-benzo[h]chomen-4-one]", "no noticeable effect"),
]

###

target: GST-VRK2A (Homo sapiens, UniProt Q86Y07); construct: a full-length protein of 508 aminoacids (known as VRK2 and VRK2A); made in house; host or cells: E. coli BL21; test: In vitro kinase assay, GST-VRK2A phosphorylation of histone H3; type: biochemical; conditions: 5 µM ATP; average of three experiments, ± standard deviation; No inhibition is lack of effect at 100 µM
value kind: IC50 (µM)
Numbers only, in µM.

# record smiles, measurement units, endpoint result
measured = [
    ("COc1cc(OC)c(C=C2C(=O)Nc3ccccc32)c(OC)c1", "µM", 14.7),
]

Could you now look at the following compound, please?
Enquiry: Field: IC50 (GST-VRK2A (Homo sapiens, UniProt Q86Y07)). Entry: Cn1cc(C2=C(c3cn(CCCSC(=N)N)c4ccccc34)C(=O)NC2=O)c2ccccc21
Return: 33.6

###

I'd be grateful if you could share measured IC50 for these entries.
target: GST-VRK1 (Homo sapiens); construct: made in house; experiment: In vitro kinase assay, GST-VRK1 phosphorylation of histone H3; format: biochemical; details: 5 µM ATP; average of three experiments, ± standard deviation; No inhibition is lack of effect at 100 µM
Give bare numbers, in µM.

# record smiles, system under test, endpoint result
records = [
    ("Cn1cc(C2=C(c3cn(CCCSC(=N)N)c4ccccc34)C(=O)NC2=O)c2ccccc21", "GST-VRK1 (Homo sapiens)", 34.4),
]

Could you now look at the following molecule, please?
Enquiry: Which IC50 is listed for COc1cc(OC)c(C=C2C(=O)Nc3ccccc32)c(OC)c1 ?
Return: 55.9

###

target: GST-VRK2A (Homo sapiens, UniProt Q86Y07); construct: a full-length protein of 508 aminoacids (known as VRK2 and VRK2A); made in house; host or cells: E. coli BL21; assay: In vitro kinase assay, GST-VRK2A autophosphorylation; format: biochemical; settings: read-out: IC50 (µM) GST-VRK2A Auto-phosphorylation
I'd be grateful if you could share measured IC50 for these entries.
Answer format: value, then unit.

Some molecules with known IC50 results, for comparison:
# molecule, value kind, endpoint result
data = [
    ("NC(=O)Nc1cc(-c2cccc(F)c2)sc1C(=O)N[C@H]1CCCNC1 [AZD7762]", "IC50", "40 µM"),
    ("O=C1Nc2ccccc2C1=Cc1c(Cl)[nH]c2ccccc12 [Cdk1 Inhibitor]", "IC50", "11.2 µM"),
]

Enquiry: Which IC50 is listed for Oc1c2ccccc2c2c3c(cccc13)N=N2 [SP600125] ?
Return: 27.6 µM

Values from paper PMC3150407
